For each entry below, report its Z-AUC value.
assay: qHTS drug screen for cell cycle checkpoint inhibitors in PARPi-resistant BRCA-mutant ovarian cancer cell lines. (AID 1963452); conditions: PEO1/OlaR viability, CellTiter-Glo luminescence, 96 h; measured here: PEO4 Z-AUC; stronger effect = lower value
Answers are plain numbers.

Fill blank: measured Z-AUC of the molecule Oc1cc(O)cc(/C=C/c2ccc(O)c(O)c2)c1 is ____.
0.317

Follow-up entry: N=c1ccn2c(n1)O[C@H]1[C@H](O)[C@@H](CO)O[C@H]12
0.152

Can you check N.N.O=C(O)C1(C(=O)O)CCC1.[Pt] next?
0.869

And for O=C1NC(=O)/C(=C/c2ccc3nccnc3c2)S1 ?
0.611

***
Bench note: what Z-AUC did O=C(O)[C@H](CC(=O)N1C[C@H]2CCCC[C@H]2C1)Cc1ccccc1 show?
-0.83

* * *

biological target: Cytochrome P450 2D6 (Homo sapiens) (UniProt P10635); assay: qHTS Assay for Inhibitors and Substrates of Cytochrome P450 2D6 (AID 891); settings: recombinant CYP2D6, luciferin-ME EGE luminescence; series mostly up to 57.1 µM; note: nearly all actives have a fitted effect of over 60% in size
Sequence (P10635 whole entry, looked up): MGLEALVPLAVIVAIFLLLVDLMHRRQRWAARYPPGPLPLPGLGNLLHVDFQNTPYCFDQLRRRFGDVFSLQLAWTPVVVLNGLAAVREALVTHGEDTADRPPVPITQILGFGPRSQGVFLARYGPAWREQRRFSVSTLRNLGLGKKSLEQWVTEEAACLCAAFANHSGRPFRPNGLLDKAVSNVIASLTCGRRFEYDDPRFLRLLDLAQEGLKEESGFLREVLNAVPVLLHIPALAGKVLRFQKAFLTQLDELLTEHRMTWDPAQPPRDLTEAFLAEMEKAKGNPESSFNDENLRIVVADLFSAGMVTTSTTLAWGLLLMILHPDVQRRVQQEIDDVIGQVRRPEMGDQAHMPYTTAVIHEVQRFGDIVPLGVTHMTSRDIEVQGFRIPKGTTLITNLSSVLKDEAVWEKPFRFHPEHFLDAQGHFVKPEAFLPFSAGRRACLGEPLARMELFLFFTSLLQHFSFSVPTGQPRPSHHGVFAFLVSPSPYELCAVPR
Results filed as inconclusive are left out. Calls of active or inactive are those of the source. Calls follow the shape of the dose curve; as a rule, active = well fitted inhibition curve with a large enough effect; inconclusive = small, poorly fitted or top-dose-only effect; inactive = no such curve, though single readings can be large or run the other way.
Pick one: y (active), n (inactive)

Solved entries:
Please share the test call associated with N#C/C(=C\c1ccc(O)c(O)c1)C(=O)NCc1ccccc1 .
n

Cool, now Fc1ccc(C(OCCCc2cnc[nH]2)c2ccc(F)cc2)cc1
y

Another compound to look at: CCCSc1ccc2nc(NC(=O)OC)[nH]c2c1
n

Now this one: Cc1nc2sccn2c(=O)c1CCN1CCC(=C(c2ccccc2)c2ccc(F)cc2)CC1
y

Same question for Oc1ccccc1O please.
n

Further cases:
Recorded test call requested for O=C(O)c1cc([N+](=O)[O-])ccc1NCCCc1ccccc1
n

And then O=C(O)c1cc(=O)c2c(Cl)cc(Cl)cc2[nH]1 , what is it?
n

Next entry: N=c1ccn2c(n1)O[C@H]1[C@H](O)[C@@H](CO)O[C@H]12
n

What about COc1ccccc1N1CCN(CCN(C(=O)c2ccc(I)cc2)c2ccccn2)CC1 ?
y

Let us now turn to N[C@H](CCCP(=O)(O)O)C(=O)O
n

Consider next the compound O=c1[nH]c2cc([N+](=O)[O-])c([N+](=O)[O-])cc2[nH]c1=O in the same way.
n

* * *

system: KB-3-1; test: Cytotoxic Profiling of Annotated Libraries Using Quantitative High-Throughput Screening (AID 1296008); settings: Five cell lines viability, CellTiter-Glo ATP luminescence, 48-72 h; note: nearly all actives have a fitted effect of over 60% in size
Inconclusive results are not listed. Activity calls are given as the source filed them. The call rests on the fitted dose curve; in most records, active means well fitted inhibition curve with a large enough effect; inconclusive means small, poorly fitted or top-dose-only effect; inactive means flat fitted curve, though single readings scatter.
Hi there, use one of these labels in your reply, thanks! class 1 = active, class 0 = inactive

Recorded call for CC(=O)c1ccc(OCC(=O)N2CCCCC2)cc1 ?
class 0

Continuing:
Please let me know the test result on file for COc1cc(CNC(=O)CCCC/C=C/C(C)C)ccc1O .
class 0

Repeat with CC1(C)[C@@H](O)CC[C@]2(C)[C@H]3C(=O)C=C4[C@@H]5C[C@@](C)(C(=O)O)CC[C@]5(C)CC[C@@]4(C)[C@]3(C)CC[C@@H]12
class 0

And then COc1cc(/C=C/C(=O)N2CCN(CC(=O)N3CCCC3)CC2)cc(OC)c1OC , what is it?
class 0

Same lookup for O=c1cc(-c2ccccc2)oc2ccccc12 , please.
class 1

Same thing, different compound: CN1[C@@H]2CC[C@H]1CC(OC(c1ccccc1)c1ccccc1)C2 (some centres not stated)
class 0

Proceed to O=C(O)CC1CC(c2ccccc2)=NO1 (configuration not stated)
class 0
